# protocol: UV absorption (λmax and ε) of the prepared UV-A screening compounds
# Assay type: physicochemical
# test-parameters: UV absorption maximum; solvent not stated
measured-attribute: UV: λmax (nm)

CCCCC(CC)COC(=O)C(C#N)=C1C=C(C)OC(C)=C1 (stereo not shown) = 352
CCC1=C(C)C(=C(C#N)C#N)C(C)=C(CC)O1 = 366
CC1=CC(=C(C#N)C#N)C=C(C)N1CCCOCCOCCOCCCN1C(C)=CC(=C(C#N)C#N)C=C1C = 372
CCCCC(CC)COC(=O)C(C#N)=C1C=C(C)N(CCCC)C(C)=C1 (stereo not shown) = 374
CC1=CC(=C(C#N)C#N)C=C(C)N1C = 368
CCCCN1C(C)=CC(=C(C#N)C#N)C=C1C = 370
CCCC1=C(CC)C(=C(C#N)C#N)C(CC)=C(CCC)O1 = 364
CCOC(=O)C(C#N)=C1C=C(C)OC(C)=C1 = 348
CC1=CC(=C(C#N)C#N)C=C(C)N1CCC(C)CC(C)(C)C (stereo not shown) = 372
CCCCC(CC)COCCCN1C(C)=CC(=C(C#N)C#N)C=C1C (stereo not shown) = 370
CCCCC(CC)CN1C(C)=CC(=C(C#N)C#N)C=C1C (stereo not shown) = 372
CCCCCCCCCCCCN1C(C)=CC(=C(C#N)C#N)C=C1C = 370
CCCCC(CC)COCCCN1C(C)=CC(=C(C#N)C(=O)OCC(CC)CCCC)C=C1C (stereo not shown) = 366

---

Catalogue of compounds with associated melting point

Below are worked cases with known answers.
CCCCC(CC)COC(=O)C(C#N)=C1C=C(C)N(CCCC)C(C)=C1 (stereo not drawn) [Example 7] = 69 to 70 °C
CC1=CC(=C(C#N)C#N)C=C(C)N1C = > 250 °C

Identify melting point associated with the compound CCCCC(CC)CN1C(C)=CC(=C(C#N)C#N)C=C1C (stereo not drawn) [Example 5]
187 °C

Identify melting point associated with the compound CCC1=C(C)C(=C(C#N)C#N)C(C)=C(CC)O1 [Example 3]
64 to 65 °C

Identify melting point associated with the compound CCCCC(CC)COCCCN1C(C)=CC(=C(C#N)C(=O)OCC(CC)CCCC)C=C1C (stereo not drawn) [Example 8]
69 to 70 °C

Identify melting point associated with the compound CC1=CC(=C(C#N)C#N)C=C(C)N1CCCOCCOCCOCCCN1C(C)=CC(=C(C#N)C#N)C=C1C [Example 9]
138 to 139 °C
